Test system: RARb homodimer (NR concentration 270 nM)
Assay: PBM binding z-score (relative to random genomic background probes); higher = stronger binding; sequences stand for … in GC…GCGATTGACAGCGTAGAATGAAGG
Please mark Yes if the recorded PBM binding z-score is equal to or greater than 1, and No if it falls below.

>  <sequence input>
CGTCCAATGTCAAGGTCAGTGAAAGAGACTCGAA

>  <group>
Yes

$$$$
>  <sequence input>
TCTTGTATATCAACAGGAGGTTAAGAAAGATCGA

>  <group>
No

$$$$
>  <sequence input>
GATACAGGGTCCGCTAGAGGCCAGAGTATGGAAA

>  <group>
No

$$$$
>  <sequence input>
CCTTTCGGGTCACTCCAGGTTATAGCATCGGAGT

>  <group>
Yes

$$$$
>  <sequence input>
TCTATTAGTTGATTAGGGCAACGGAAACAGCGGA

>  <group>
No

$$$$

Pending sequence:
Does the reported PBM binding z-score for "GGAACGAGGGCAAAGTTGATAGAATCTGTCGACG" fall at or above the 1 mark?
Yes

* * *

Test system: PPARg homodimer (NR concentration 180 nM)
Assay: PBM binding z-score (relative to random genomic background probes); higher = stronger binding; sequences stand for … in GC…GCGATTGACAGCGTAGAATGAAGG
Please mark true (1) if the recorded PBM binding z-score is equal to or greater than 2, and false (0) if it falls below.

Examples with answers:
>  <sequence input>
CAAACTAGGTCACAGAGGTCAAAGCCCGTGCGTA

>  <system name>
PPARg homodimer (NR concentration 180 nM)

>  <group>
true (1)

$$$$
>  <sequence input>
AGTCAAAGTTCCCTAGGTAACGTAAGATTCAGCT

>  <system name>
PPARg homodimer (NR concentration 180 nM)

>  <group>
false (0)

$$$$
>  <sequence input>
CCTGGTAGGTCAATGGTCAGCTAAAGCAGCTCGC

>  <system name>
PPARg homodimer (NR concentration 180 nM)

>  <group>
true (1)

$$$$
>  <sequence input>
TCATATAGGTAAAAGGTGATAGTCGGTGTGGTAA

>  <system name>
PPARg homodimer (NR concentration 180 nM)

>  <group>
false (0)

$$$$
>  <sequence input>
CCTCCAAGGTCAGAGAGGTCAGTGAATGCCGAGT

>  <system name>
PPARg homodimer (NR concentration 180 nM)

>  <group>
true (1)

$$$$
>  <sequence input>
ACAGACAGGAGAGTGAAGGTAACTCAGCTGGACG

>  <system name>
PPARg homodimer (NR concentration 180 nM)

>  <group>
false (0)

$$$$

Does the reported PBM binding z-score for "AATAGCAGGCCAAGTTTGGGTCACTCAAACAAAG" fall at or above the 2 mark?
false (0)

Does the reported PBM binding z-score for "GCGACTGGGGCAAAGCAGGTTACCGTAAGGTTGG" fall at or above the 2 mark?
false (0)

Does the reported PBM binding z-score for "ATCTCTAGTTAAAGTTCAGTGAAAGATCGATAGA" fall at or above the 2 mark?
true (1)

Does the reported PBM binding z-score for "TCTATTACTTGAAGGGCAACCGACGAGTCCGTTT" fall at or above the 2 mark?
false (0)

Does the reported PBM binding z-score for "TCTCGGAGGACACGAAAGGTCGGAGCTCGACATC" fall at or above the 2 mark?
false (0)

Does the reported PBM binding z-score for "AATAGTTGGTCAGCTGAGGTCACACACAATTCGG" fall at or above the 2 mark?
true (1)

Does the reported PBM binding z-score for "CCTTACGGGTCACGAGGTTAGAGCACGACGAGCG" fall at or above the 2 mark?
true (1)

Does the reported PBM binding z-score for "TCATATAGGTAAACGTGAAAGTCGAACGATATGA" fall at or above the 2 mark?
false (0)
